- MEASUREMENT TARGET: NaV1.3 (Homo sapiens, UniProt Q9NY46)
- Construct: expressed in transfected cells; host or cells: HEK293
- Sequence (Q9NY46 whole entry): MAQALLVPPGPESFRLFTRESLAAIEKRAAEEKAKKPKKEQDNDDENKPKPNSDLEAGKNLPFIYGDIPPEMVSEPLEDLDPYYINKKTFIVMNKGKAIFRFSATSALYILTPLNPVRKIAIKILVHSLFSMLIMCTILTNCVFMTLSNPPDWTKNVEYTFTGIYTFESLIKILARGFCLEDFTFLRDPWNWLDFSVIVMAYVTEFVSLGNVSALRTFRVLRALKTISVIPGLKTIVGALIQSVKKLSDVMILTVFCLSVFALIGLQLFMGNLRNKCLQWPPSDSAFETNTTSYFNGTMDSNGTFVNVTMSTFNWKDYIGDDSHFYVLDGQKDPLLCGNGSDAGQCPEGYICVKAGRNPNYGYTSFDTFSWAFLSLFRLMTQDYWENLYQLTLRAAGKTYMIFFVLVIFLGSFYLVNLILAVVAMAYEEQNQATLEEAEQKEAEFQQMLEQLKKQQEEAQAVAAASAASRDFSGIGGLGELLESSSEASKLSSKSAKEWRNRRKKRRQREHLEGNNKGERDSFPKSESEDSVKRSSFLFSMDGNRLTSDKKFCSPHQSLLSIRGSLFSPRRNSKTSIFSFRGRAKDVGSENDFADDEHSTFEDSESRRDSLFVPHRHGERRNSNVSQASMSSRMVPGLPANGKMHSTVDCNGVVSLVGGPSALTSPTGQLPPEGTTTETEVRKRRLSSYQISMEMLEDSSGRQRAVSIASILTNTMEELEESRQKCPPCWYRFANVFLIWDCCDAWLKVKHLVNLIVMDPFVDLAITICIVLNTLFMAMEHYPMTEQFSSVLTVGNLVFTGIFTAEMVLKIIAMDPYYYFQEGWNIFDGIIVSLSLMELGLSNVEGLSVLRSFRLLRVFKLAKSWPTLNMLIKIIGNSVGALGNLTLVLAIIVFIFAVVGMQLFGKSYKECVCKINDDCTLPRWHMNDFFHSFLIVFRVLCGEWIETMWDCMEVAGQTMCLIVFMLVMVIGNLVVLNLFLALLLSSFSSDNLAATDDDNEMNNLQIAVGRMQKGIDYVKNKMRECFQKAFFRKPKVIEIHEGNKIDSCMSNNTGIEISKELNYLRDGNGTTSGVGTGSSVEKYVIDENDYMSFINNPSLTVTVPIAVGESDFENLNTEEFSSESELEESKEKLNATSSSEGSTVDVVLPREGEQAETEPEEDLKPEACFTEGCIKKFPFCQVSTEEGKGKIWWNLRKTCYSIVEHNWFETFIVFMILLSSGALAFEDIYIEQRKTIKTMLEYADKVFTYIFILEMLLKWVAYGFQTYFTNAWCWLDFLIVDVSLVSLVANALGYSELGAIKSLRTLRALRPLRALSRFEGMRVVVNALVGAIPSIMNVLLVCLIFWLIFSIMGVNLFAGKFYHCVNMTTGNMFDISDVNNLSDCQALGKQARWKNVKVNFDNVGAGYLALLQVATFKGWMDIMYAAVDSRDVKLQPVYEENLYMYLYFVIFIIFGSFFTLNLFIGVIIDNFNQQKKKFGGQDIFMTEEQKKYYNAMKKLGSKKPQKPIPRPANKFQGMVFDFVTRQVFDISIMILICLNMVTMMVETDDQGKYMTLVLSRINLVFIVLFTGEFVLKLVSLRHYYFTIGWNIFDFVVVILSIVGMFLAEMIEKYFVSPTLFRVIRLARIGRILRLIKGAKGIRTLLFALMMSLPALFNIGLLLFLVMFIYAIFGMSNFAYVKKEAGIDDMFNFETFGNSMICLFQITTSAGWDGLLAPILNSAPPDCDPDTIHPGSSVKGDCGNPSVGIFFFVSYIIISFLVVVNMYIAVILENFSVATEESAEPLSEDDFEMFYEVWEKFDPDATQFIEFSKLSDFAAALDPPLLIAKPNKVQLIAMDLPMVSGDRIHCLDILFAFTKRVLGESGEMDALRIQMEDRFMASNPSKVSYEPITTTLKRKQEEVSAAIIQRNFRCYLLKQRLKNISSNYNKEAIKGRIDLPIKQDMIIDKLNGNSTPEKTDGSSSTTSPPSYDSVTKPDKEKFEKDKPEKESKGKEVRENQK
- PROCEDURE DETAILS: VIPR optical membrane potential assay with electrical stimulation, NaV1.3
- Format: cell-based
- CONDITION DESCRIPTION: Table 9, NaV 1.3 receptors
pIC50: −log10 of the molar value.
Let's look at some compounds and their measured pIC50.

COMPOUND: COc1ccccc1C1CCN(C(=O)c2cnc(N3CCOCC3)nc2-c2ccccc2F)CC1 [compound 44]
MEASUREMENT TARGET: NaV1.3 (Homo sapiens, UniProt Q9NY46)
ENDPOINT RESULT: 5.00 to 5.70
//
COMPOUND: CC(C)N(Cc1ccccc1)C(=O)c1cnc(N2CCOCC2)nc1-c1ccccc1Cl [compound 194]
MEASUREMENT TARGET: NaV1.3 (Homo sapiens, UniProt Q9NY46)
ENDPOINT RESULT: 5.00 to 5.70
//
COMPOUND: CCN(Cc1ccccc1)C(=O)c1cnc(NCc2ccc(C)o2)nc1-c1ccc(C#N)cc1 [compound 244]
MEASUREMENT TARGET: NaV1.3 (Homo sapiens, UniProt Q9NY46)
ENDPOINT RESULT: < 5.00
//
COMPOUND: CCN(Cc1cccc(C)c1)C(=O)c1cnc(N2CCN(C(C)=O)CC2)nc1-c1ccc(C#N)cc1 [compound 208]
MEASUREMENT TARGET: NaV1.3 (Homo sapiens, UniProt Q9NY46)
ENDPOINT RESULT: < 5.00
//
COMPOUND: COc1ccccc1CCNC(=O)c1cnc(N2CCCC2)nc1-c1cccc(C)c1 [compound 272]
MEASUREMENT TARGET: NaV1.3 (Homo sapiens, UniProt Q9NY46)
ENDPOINT RESULT: < 5.00

I'd like to know its pIC50. The compound in question is CN(C)CCN(Cc1ccccc1)C(=O)c1cnc(N2CCOCC2)nc1-c1ccccc1F [compound 28]
< 5.00

May I ask what pIC50 has been recorded for COc1cccc(N(C(=O)c2cnc(N3CCCCC3)nc2-c2ccccc2F)C2CCCC2)c1 [compound 42] ?
5.00 to 5.70

---

- MEASUREMENT TARGET: UniProtKB Q00975
- PROCEDURE DETAILS: VIPR optical membrane potential assay with electrical stimulation, CaV2.2
- CONDITION DESCRIPTION: Table 9, CaV 2.2 receptors
Entries and their IC50

In the examples that follow, each entry is paired with its recorded IC50.
COMPOUND: COc1cccc(N(C(=O)c2cnc(N3CCC4CCCCC4C3)nc2-c2ccccc2F)C2CCOCC2)c1 (centres unmarked) [compound 68]
IC50: 2 to 10 µM
--
COMPOUND: CCCCNC(=O)c1cnc(NC2CCCC2)nc1-c1cccc(C)c1 [compound 218]
IC50: > 10 µM

// IC50 lookup, key: CC(C)N(Cc1ccc(N2CCCC2)cc1)C(=O)c1cnc(N2CCC3CCCCC3C2)nc1-c1ccccc1F (centres unmarked) [compound 137]
< 2 µM

// lookup IC50 for CC(C)N(C(=O)c1cnc(N2CCCCC2)nc1-c1ccccc1Cl)c1ccccc1 [compound 82]
2 to 10 µM

I am curious: what IC50 value has been reported for O=C(c1cnc(N2CCOCC2)nc1-c1ccccc1F)N1CC=C(c2ccccc2)CC1 [compound 91] ?
> 10 µM

Could you share which IC50 value was measured for Cc1nc(N2CCOCC2)nc(-c2ccccc2F)c1C(=O)N(Cc1ccc(F)cc1)C1CC1 [compound 9] ?
2 to 10 µM

Endpoint output: IC50 of CC1Cc2ccccc2N1C(=O)c1cnc(N2CCOCC2)nc1-c1ccccc1F (centres unmarked) [compound 150] . Value?
> 10 µM

What does the data say about its IC50? Entry: COc1cccc(N(C(=O)c2c(C)nc(N3CCCCC3)nc2-c2ccccc2F)C(C)C)c1 [compound 104]
> 10 µM

If you can, please state the reported IC50 value of CC(=O)Nc1ccc(-c2nc(N3CCOCC3)ncc2C(=O)N(Cc2ccccc2)C(C)C)cc1 [compound 168] .
> 10 µM

What value of measured IC50 is listed for CCN(Cc1cccc(C)c1)C(=O)c1cnc(N2CCCC2)nc1-c1ccccc1F [compound 335] ?
2 to 10 µM

If you can, please state the reported IC50 value of O=C(c1cnc(NCc2ccccc2C(F)(F)F)nc1-c1ccccc1F)N1CCOCC1 [compound 252] .
> 10 µM

Recorded IC50 for COCCCNC(=O)c1cnc(N2CCOCC2)nc1-c1ccc(C#N)cc1 [compound 349] , please?
> 10 µM

# input compound: CCC(COC)N(Cc1ccccc1)C(=O)c1cnc(N2CCSCC2)nc1-c1ccccc1F (centres unmarked) [compound 81] ; wanted: its IC50
2 to 10 µM

Entry under review: COc1cccc(N(C(=O)c2cnc(N3CCOCC3)nc2-c2ccccc2F)C2CC2)c1 [compound 183] . Reported IC50?
> 10 µM

Requested read-out: IC50. Entry: Cc1cccc(CN(C(=O)c2cnc(N3CCOCC3)nc2-c2ccccc2F)C2CC2)c1 [compound 163]
2 to 10 µM

For the compound shown here, N#Cc1ccc(-c2nc(NC3CCCCC3)ncc2C(=O)N2CCCC2)cc1 [compound 210] , give the reported IC50.
> 10 µM

Given the compound COc1cccc(CN(C(=O)c2cnc(N3CCOCC3)nc2-c2ccccc2F)C2CC2)c1 [compound 56] , what is its reported IC50?
2 to 10 µM

From: patent US8546414B2
